System: NCI-H460
Assay: NCI tumour cell line growth inhibition, 48 h
Activity calls are given as the source filed them. Rule as the data show it: active = GI50 up to about 1.1 µM and inactive = higher.
Entries annotated with measured GI50

Example compounds with recorded GI50:
{"compound": "COC1OC(CO)C(O)C(OC(C)=O)C1NC(=O)N(CCCl)N=O (stereo not given)", "system": "NCI-H460", "observed measurement": "83.6 µM (inactive)"}
{"compound": "Cc1cc(Cl)ccc1N1C(=O)C(=O)C(c2nc3ccccc3s2)C(=O)C1=O", "system": "NCI-H460", "observed measurement": "> 100 µM (inactive)"}
{"compound": "O=S(O)CCCCSSCCCCSSCCCCS(=O)O", "system": "NCI-H460", "observed measurement": "53.1 µM (inactive)"}

Exercise: Form field: reported GI50 of `O=c1c(-c2ccccc2)c2oc(c1-c1ccccc1)CS(=O)(=O)CCC2`
Key: 31.6 µM (inactive)

Exercise: Then this compound: CCC1OC2C(CC=C(C)C)=C3OC(C)(O)C(C)(CC)C(OC(C)=O)C3=C3OC(=O)C=C1C32 (stereo not given)
Key: 30.9 µM (inactive)

The reported numbers originate from ChEMBL document CHEMBL1201862.
